Provide the reported TT Ctt2 (concentration that doubles the coagulation time) of each item.
Test system: human plasma
TEST_PROTOCOL: Thrombin time (TT) in human plasma, anti-coagulant activity
Assay type: biochemical
CONDITION_SET: human plasma deficient in platelets, 2 min incubation at 37° C., Prest Thrombin
Counter-ions that a name gives are not always drawn.
Just the number in µM, nothing appended.

Task: Find the recorded TT Ctt2 (concentration that doubles the coagulation time) belonging to N=C(N)c1ccc(CNC(=O)[C@]23C[C@H]2CCN3C(=O)[C@H](NS(=O)(=O)Cc2ccccc2)C2CCCCC2)cc1 [Example 16, hydrochloride] and report it.
Output: 0.09

Task: Cl.N=C(N)c1ccc(CNC(=O)[C@]23C[C@H]2CCN3C(=O)[C@H](NCC(=O)O)C(C2CCCCC2)C2CCCCC2)cc1 [Example 14] , same question.
Output: 0.19

Task: CCCCN[C@H](CC1CCCCC1)C(=O)N1CCC[C@@H]2C[C@@]21C(=O)NCc1ccc(N)nc1C.Cl.Cl [Example 31] , same question.
Output: 0.17

Task: Cl.Cl.N=C(N)c1ccc(CNC(=O)[C@]23C[C@H]2CCN3C(=O)[C@H](N)C(c2ccccc2)c2ccccc2)cc1 [Example 11] , same question.
Output: 0.06

Task: CCOC(=O)CN[C@H](CC1CCCCC1)C(=O)N1CCC[C@@H]2C[C@@]21C(=O)NCc1ccc(C(=N)N)cc1.Cl.Cl [Example 25] , same question.
Output: 0.08

Task: N=C(N)c1ccc(CNC(=O)[C@]23C[C@H]2CCN3C(=O)[C@H](NCC(=O)O)C2CCCCC2)cc1 [Example 17, hydrochloride] , same question.
Output: 0.11
